FYI, the data here is from ChEMBL document CHEMBL1125934.

Experimental System: UniProt Q9CQ65
Sequence (Q9CQ65 whole entry): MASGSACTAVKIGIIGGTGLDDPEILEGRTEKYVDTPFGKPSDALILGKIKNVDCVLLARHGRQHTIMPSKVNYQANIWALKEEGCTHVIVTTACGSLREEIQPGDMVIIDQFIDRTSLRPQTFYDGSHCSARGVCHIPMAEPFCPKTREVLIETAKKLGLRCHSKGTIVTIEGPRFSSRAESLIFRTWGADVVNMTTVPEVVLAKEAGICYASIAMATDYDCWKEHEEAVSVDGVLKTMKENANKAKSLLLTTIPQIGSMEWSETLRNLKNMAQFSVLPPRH
Experiment Notes: The ability to act as substrates for MTA phosphorylase activity was determined by using a mouse liver enzyme preparation
Format: functional, tissue-based
Design: concentration or dose not given beside the values
Value Type: Control (%)

# example entries with known answers
{"columns": ["Molecule", "Unit Spec", "Result Value"],
 "data": [
  ["CCCSC[C@H]1OC(n2cnc3c(N)ncnc32)[C@H](O)[C@@H]1O (stereo partly drawn)", "%", 102],
  ["CCSC[C@H]1OC(n2cnc3c(N)ncnc32)[C@H](O)[C@@H]1O (stereo partly drawn)", "%", 95],
  ["Nc1ncnc2c1ncn2C1O[C@H](CSCCBr)[C@@H](O)[C@H]1O (stereo partly drawn)", "%", 38]
]}

(A) Nc1ncnc2c1ncn2C1O[C@H](CSCCF)[C@@H](O)[C@H]1O (stereo partly drawn)
(B) Nc1ncnc2c1ncn2C1O[C@H](CSCCO)[C@@H](O)[C@H]1O (stereo partly drawn)
(C) CSC[C@H]1O[C@@H](n2cnc3c(N)ncnc32)[C@H](O)[C@@H]1O
Exam item: list the entries in increasing order of Control. Provide the ranking by listing each label in its place in the requested order. B, A, C
